B1: Intersectin-1, residues 909 to 971; numbered along this chain, Q15811 (parent)
chain: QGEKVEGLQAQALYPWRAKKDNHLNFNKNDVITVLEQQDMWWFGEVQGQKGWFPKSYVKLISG

- Variants of: B1
- MEASUREMENT_DESCRIPTION: abundance fitness (aPCA) (normalised: wild type 0, dead -1); higher = more abundant; growth selection in yeast, the domain comes from the species named
- CONDITION_DETAILS: Homo sapiens
Would you mind sorting the entries by abundance fitness according to these classes? range A (below -0.4), range B (-0.4 to below -0.1), range C (-0.1 or more)

INSERT INTO assay_data (variant_descriptor, cat) VALUES
  ('Q9P', 'range B'),
  ('Y14C', 'range A');

State the class of the variant shown: G2C
range B

State the class of the variant shown: K20H
range B

State the class of the variant shown: M40A
range C

State the class of the variant shown: Y14A
range C

State the class of the variant shown: D30H
range A

Where do the numbers come from? From the Human Domainome abundance scans (Beltran et al. 2025).
